experiment: chemical genetic growth profiling, strain panel (AID 1159580);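 note: tested at 20 µM; growth read once vehicle control cultures reached saturation at 30 °C; 1 = growth at the plate median or of vehicle wells; lower values mean less growth of the strain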; conditions: S. cerevisiae deletion strains, growth OD, locus YNL183C, strain NPR1
Screen size: about 5,500 compounds; about 2,000 (36%) were called active. About 18% were inconclusive and are not listed. Cut-off read from the data, not from the text of the source: active = normalized growth mostly below about 0.91 (no sharp cut-off); inconclusive = no clear call, values can overlap the other calls; inactive = mostly above about 0.92. Some of the results follow.
Result category, one only: TRUE (active), FALSE (inactive)

Reference set (3 entries):
N#C/C(=C\C=C\c1ccccc1)c1nc2ccccc2[nH]1 | FALSE
O=C1c2ccccc2C(=O)c2c1ccc(O)c2O | TRUE
CC(C)=CCC1=C(O)c2ccccc2C(=O)C1=O | FALSE

How did this test come out for Cc1nn(Cc2cccc(C(=O)O/N=C(/N)c3ccc(Cl)cc3)c2)c(C)c1Br ?
FALSE

Thanks! And O=C(Oc1ccc(C2SCCS2)cc1)c1cccs1 ?
FALSE

* * *

assay: chemical genetic growth profiling, strain panel (AID 1159580);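 note: tested at 20 µM; growth read once vehicle control cultures reached saturation at 30 °C; 1 = growth at the plate median or of vehicle wells; lower values mean less growth of the strain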; conditions: S. cerevisiae deletion strains, growth OD, locus YKL190W, strain CNB1, stronger effect = lower value
The whole screen tested about 5,500 compounds, of which about 2,000 (36%) were called active. Roughly 18% stayed inconclusive and do not appear here. The list shows a part of the results.
OBSERVABLE: normalized growth
Reply briefly: the number, and no unit.

Cc1cc(O)c2c(c1O)C(=O)c1c(O)cc(C)c(O)c1C2=O | 0.984
Fc1ccc(C(c2ccc(F)cc2)N2CCN(C/C=C/c3ccccc3)CC2)cc1 | 0.974

Given the entry COc1ccccc1N=C1SCC(=O)N1Cc1ccco1 , report its measured normalized growth.
0.997

Thanks! And CCCCC/C=C\C/C=C\C/C=C\C/C=C\CCCC(=O)O ?
0.987

Thanks! And O=[N+]([O-])c1cc(C(F)(F)F)ccc1NCCCn1ccnc1 ?
0.994

Thanks! And CC(=O)/C(=C\N(C)C)Sc1nnc(C(F)(F)F)n1C ?
0.993

Thanks! And Cc1cc(C)c(C(=O)NCCNc2ccc(C(F)(F)F)cc2[N+](=O)[O-])c(C)c1 ?
0.794

Thanks! And C=C(C)c1cc2cc(C(C)=O)c(O)cc2o1 ?
0.954

Thanks! And COc1ccc2c(c1)[nH]c1c(C)nccc12 ?
1.01

Thanks! And COC(=O)c1csc2c(C(F)(F)F)cc(N3CCN(S(=O)(=O)c4ccc(C)cc4)CC3)nc12 ?
1.01

Thanks! And O=C1c2ccc(O)c(O)c2C(=O)c2c(O)ccc(O)c21 ?
1.01

* * *

Attribute: normalized growth
experiment: chemical genetic growth profiling, strain panel (AID 1159580);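 note: tested at 20 µM; growth read once vehicle control cultures reached saturation at 30 °C; 1 = growth at the plate median or of vehicle wells; lower values mean less growth of the strain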; conditions: S. cerevisiae deletion strains, growth OD, locus YDL005C, strain med2, stronger effect = lower value
The campaign covered roughly 5,500 compounds. About 2,000 (36%) were called active. Another 18% or so got no clear call; they are omitted. The list shows a part of the results.
Reply briefly: the number, and no unit.

COC(=O)C1=CO[C@@H](O[C@@H]2O[C@H](CO)[C@@H](O)[C@H](O)[C@H]2O)[C@@H]2[C@@H](C)[C@@H](O)C[C@H]12 | 0.989

Given the entry Cc1ncc([N+](=O)[O-])n1CCO , report its measured normalized growth.
0.968

Thanks! And O=c1[nH]c2ccccc2n1CCCN1CCC(n2c(=O)[nH]c3cc(Cl)ccc32)CC1 ?
0.971

Thanks! And COc1cc(O)c(C(=O)O)c(O)c1 ?
0.976

Thanks! And CC1(C)C[C@@H]2C(=O)CC[C@H]3O[C@]3(C)CC[C@H]21 ?
1.01

Thanks! And CC(C)(O)CC[C@@H](O)[C@](C)(O)C1CC[C@@]2(O)C3=CC(=O)C4C[C@@H](O)[C@@H](O)C[C@]4(C)C3CC[C@]12C (some centres not stated) ?
0.994

Thanks! And COc1ccc2c(=O)c(CC(=O)O)coc2c1 ?
0.985

Thanks! And CC(=O)OC1CCC23C(=O)OC45CCC(C6=CC(=O)OC6)C4(C)CCC2C5CCC3(O)C1 (configuration not stated) ?
0.98

Thanks! And O=C(O)c1cccc(O)c1O ?
1.02

Thanks! And CC(=O)O[C@@H]1CC2C(C)(C)[C@H](O)C[C@H](O)[C@]2(C)C2CC[C@@]3(C)C(=CC(=O)O[C@H]3c3ccoc3)[C@@]21C (some centres not stated) ?
0.981

Thanks! And O=C(O)c1cc2cc(Cl)ccc2[nH]1 ?
0.987
